Molecular target: TIM of T. cruzi (TcTIM) (Trypanosoma cruzi, UniProt P52270)
Construct: made in house; host or cells: Escherichia coli
Sequence (P52270 whole entry): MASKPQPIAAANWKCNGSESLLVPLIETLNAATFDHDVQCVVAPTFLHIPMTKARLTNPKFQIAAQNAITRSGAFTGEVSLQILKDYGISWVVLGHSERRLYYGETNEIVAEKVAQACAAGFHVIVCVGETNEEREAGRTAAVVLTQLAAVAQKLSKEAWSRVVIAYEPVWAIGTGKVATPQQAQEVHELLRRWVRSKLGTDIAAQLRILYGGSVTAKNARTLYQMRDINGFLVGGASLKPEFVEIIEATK
Experiment: Inhibition of activity of recombinant wild type TcTIM after 2 h incubation
Format: biochemical
Details: TcTIM wild; 5 µg/ml enzyme, 2 h, 36°C, 10% DMSO; read-out: IC50, concentration of DTDA that induces 50% inhibition
parameter measured: pIC50
Please treat pIC50 as minus the base-10 logarithm of the molar concentration.

Bench note: what pIC50 did Nc1ccccc1SSc1ccccc1N [DTDA, 2,2′-dithiodianiline] show?
6.59

###

Target: TIM of T. cruzi (TcTIM) (Trypanosoma cruzi)
Construct: made in house; host or cells: Escherichia coli
Assay: Inhibition of activity of recombinant wild type TcTIM after 2 h incubation
Assay type: biochemical
Conditions: 2 h, 36°C, 10% DMSO; read-out: concentration that induced 50% inhibition of the activity of TcTIM
parameter measured: pIC50
Please treat pIC50 as minus the base-10 logarithm of the molar concentration.

Param readout= pIC50; system= TIM of T. cruzi (TcTIM) (Trypanosoma cruzi); entry= Nc1ccccc1SSc1ccccc1N ; returns value.
6.59
